experiment: Half life in CD1 rat at 2.5 mg/kg, iv or 5 mg/kg, po; format: ADME, organism-based; conditions: in vivo
endpoint_name: half-life (h)
Answers are plain numbers, in h.

Lookup result for `Cc1onc(-c2ccccc2Cl)c1C(=O)N(C)c1ccc(Cl)cc1` ; measured half-life: 6.6

###

experiment: Clearance in CD1 rat at 2.5 mg/kg, iv or 5 mg/kg, po; assay type: ADME, organism-based; settings: in vivo
endpoint_name: clearance (mL/min/kg)
One number for each entry, in mL/min/kg.

The reported clearance of the compound `Cc1onc(-c2ccccc2Cl)c1C(=O)N(C)c1ccc(Cl)cc1` was 85

###

assay: Volume of distribution at steady state in CD1 rat at 3 mg/kg, iv or 30 mg/kg, po; format: ADME, organism-based; settings: in vivo, read-out: Vdss
endpoint_name: Vd (L/kg)
One number for each entry, in L/kg.

Vd in this record for `Cc1ccc(N(C)C(=O)c2c(-c3ccccc3Cl)noc2C)cc1Cl` : 40

###

assay: Clearance in dog at 3 mg/kg, iv or 30 mg/kg, po; type: ADME, organism-based, Canis lupus familiaris; details: in vivo
endpoint_name: clearance (mL/min/kg)
One number for each entry, in mL/min/kg.

Note to self: clearance recorded for `Cc1ccc(N(C)C(=O)c2c(-c3ccccc3Cl)noc2C)cc1Cl` was 39

###

experiment: Intrinsic clearance in rat hepatocytes; assay type: ADME, cell-based, Liver, Hepatocyte
Assign CLint to each entry below.
Numbers only, in mL/min/g.

{"columns": ["smiles_record", "unit_abbrev", "CLint"],
 "data": [
  ["Cc1ccc(N(C)C(=O)c2c(-c3ccccc3Cl)noc2C)cc1Cl", "mL/min/g", 54]
]}

Consider the record given below.
For `Cc1onc(-c2ccccc2Cl)c1C(=O)N(C)c1ccc(Cl)cc1` the compound record lists CLint as 48

###

assay: Half life in CD1 rat at 3 mg/kg, iv or 30 mg/kg, po; format: ADME, organism-based; conditions: in vivo
endpoint_name: half-life (h)
Numbers only, in h.

half-life measured on `Cc1ccc(N(C)C(=O)c2c(-c3ccccc3Cl)noc2C)cc1Cl` = 8.7

###

assay: Oral bioavailability in CD1 rat 5 mg/kg; assay type: ADME, organism-based; settings: in vivo
endpoint_name: bioavailability (%)
Give bare numbers, in %.

Form: compound = `Cc1onc(-c2ccccc2Cl)c1C(=O)N(C)c1ccc(Cl)cc1` ; bioavailability = 1

###

assay: Volume of distribution at steady state in dog at 3 mg/kg, iv or 30 mg/kg, po; type: ADME, organism-based, Canis lupus familiaris; settings: in vivo, read-out: Vdss
endpoint_name: Vd (L/kg)
Numbers only, in L/kg.

Looking up `Cc1ccc(N(C)C(=O)c2c(-c3ccccc3Cl)noc2C)cc1Cl` , I see its Vd listed as 8.6

###

experiment: Oral bioavailability in dog at 30 mg/kg; type: ADME, organism-based, Canis lupus familiaris; settings: in vivo
endpoint_name: bioavailability

Value of measured bioavailability for the entry `Cc1ccc(N(C)C(=O)c2c(-c3ccccc3Cl)noc2C)cc1Cl` : 0.3%

###

target: G-protein coupled bile acid receptor 1 (Rattus norvegicus); assay: Agonist activity at rat TGR5 expressed in melanophores assessed as melanosome dispersion by melanophore assay
Sequence (Q80T02 whole entry): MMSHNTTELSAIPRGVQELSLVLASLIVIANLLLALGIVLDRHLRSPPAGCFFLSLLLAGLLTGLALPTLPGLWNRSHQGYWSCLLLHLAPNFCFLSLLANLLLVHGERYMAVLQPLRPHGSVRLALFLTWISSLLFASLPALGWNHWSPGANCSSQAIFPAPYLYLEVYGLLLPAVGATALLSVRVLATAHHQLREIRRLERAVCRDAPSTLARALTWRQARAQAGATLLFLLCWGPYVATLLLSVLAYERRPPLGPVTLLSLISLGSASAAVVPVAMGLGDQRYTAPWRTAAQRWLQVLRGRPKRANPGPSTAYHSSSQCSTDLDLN
endpoint_name: pEC50
Give bare numbers, as −log10 of the molar value.

The reported pEC50 of the molecule `Cc1onc(-c2ccccc2Cl)c1C(=O)N(C)c1ccc(Cl)cc1` was 5.70

###

experiment: Volume of distribution at steady state in CD1 rat at 2.5 mg/kg, iv or 5 mg/kg, po; format: ADME, organism-based; conditions: in vivo, read-out: Vdss
endpoint_name: Vd
Number first, unit second.

get_value(item= `Cc1onc(-c2ccccc2Cl)c1C(=O)N(C)c1ccc(Cl)cc1` , readout=Vd) returns 7.1 L/kg
